- system: Replicase polyprotein 1ab (Severe acute respiratory syndrome-related coronavirus, UniProt P0C6X7)
Measured pIC50 by item
Please express pIC50 as -log10 of the molar concentration.

Consider the reported pIC50 for these compounds:
[[record]]
compound = "COC(=O)[C@]1(C)CCC[C@]2(C)c3ccc(C(C)C)cc3CC[C@@H]12 [METHYL DEHYDROABIETATE]"
measured_endpoint = "pIC50"
observed_value = 3.68

[[record]]
compound = "CC(C)c1cc2c(cc1O)[C@@]1(C)CCC[C@@](C)(CO)[C@@H]1CC2 [18-HYDROXYFERRUGINOL]"
measured_endpoint = "pIC50"
observed_value = 3.66

[[record]]
compound = "CC(C)c1cc2c(cc1O)[C@@]1(C)CCCC(C)(C)[C@@H]1CC2 [FERRUGINOL]"
measured_endpoint = "pIC50"
observed_value = 4.30

[[record]]
compound = "COc1ccc(-c2cc(=O)c3c(O)cc(O)c(-c4cc(-c5cc(=O)c6c(O)cc(OC)cc6o5)ccc4OC)c3o2)cc1 [SCIADOPITISIN]"
measured_endpoint = "pIC50"
observed_value = 4.42

[[record]]
compound = "CC(C)c1cc2c(cc1O)[C@@]1(C)CC[C@H](O)C(C)(C)[C@@H]1CC2 [HINOKIOL]"
measured_endpoint = "pIC50"
observed_value = 3.63


Returns the measured pIC50 for the input compound. Input: CC(C)C1=CC2=CC[C@@H]3[C@](C)(CCC[C@@]3(C)C(=O)O)[C@H]2CC1 [ABIETIC ACID]
3.72

So what does the record say about pIC50 for COc1ccc(-c2cc(=O)c3c(O)cc(O)cc3o2)cc1-c1c(O)cc(O)c2c(=O)cc(-c3ccc(O)cc3)oc12 [BILOBETIN] ?
4.14
